What Kd was measured for each of the following?
Biological target: thrombin (alpha) (human, UniProt P00734;P00734 P00734:328-363,P00734:364-622)
Assay: filter; 50 mM Tris pH 7.5, 100 mM NaCl, 1 mM MgCl2, 37 C
A complete answer gives the number followed by the unit.

Task: Fill in Kd for record 30-6 (ssDNA) DNA: AGATGCCTGTCGAGCATGCTACACCCGTGGTAGGGTAGGATGGGGTGGTCGTAGCTAAACTGCTTTGTCGACGGG
Result: 1.2 nM

Task: Given the binder 60-18 (ssDNA) DNA: AGATGCCTGTCGAGCATGCTCTTTGGAGACAGTCCGTGGTAGGGCAGGTTGGGGTGACTTCGTGGAAGAAGCGAGACGGTGTAGCTAAACTGCTTTGTCGA , write its reported Kd.
Result: 0.92 nM

Task: Determine its reported Kd: 60-27 (ssDNA) DNA: AGATGCCTGTCGAGCATGCTGGCGTCCGATGATTCAGGTCGTGGTAGGCATTGAGGGATGGGGTCCTGTGGGACTGGCCTGTAGCTAAACTGCTTTGTCGACGGG
Result: 0.96 nM

Task: State, in one line, measured Kd of 60-7 (ssDNA) DNA: AGATGCCTGTCGAGCATGCTGGCGGCGTTGGTGTAGTGGCGCACTGTGGTTGGGCGGAGAGGCTAGGAGTGCATGATGCCGTAGCTAAACTGCTTTGTCGACGGG
Result: 2.5 nM
